Data origin, for the record: ChEMBL document CHEMBL2150950

experiment: Ionotropic effect in guinea pig ventricle papillary muscles assessed as lengthening of 25% repolarized cardiac action potential duration time at 10^-4 M by microelectrode technique relative to untreated control (reference value: 84 to 104 APD25 ms); assay type: functional, Cavia porcellus, Papillary muscle
Rule: t for Time not less than 100 ms, f for anything less.

>>> print(df.to_string())
                                   compound  discrete_label
0  COC(=O)C1=C(C)NC(C)=C([N+](=O)[O-])C1c1ccccc1OC(F)F (stereo unspecified)               t
1  COC(=O)C1=C(C)NC=C([N+](=O)[O-])C1c1ccccc1OC(F)F (stereo unspecified)               t
2  COC(=O)C1=C(C)NC=C([N+](=O)[O-])C1c1ccccc1C(F)(F)F (stereo unspecified)               t
3  CCCOCCOC(=O)C1=C(C)NC=C([N+](=O)[O-])C1c1ccccc1OC(F)F (stereo unspecified)               t

Proceed to the following item.
Please indicate if the recorded Time for COC(=O)C1=C(C)NC(C)=C([N+](=O)[O-])C1c1ccccc1C(F)(F)F (stereo unspecified) meets or exceeds 100 ms. f

###

assay: Ionotropic effect in guinea pig right ventricle papillary muscles assessed as contraction force at 10^-7 M by force transduction assay relative to untreated control (reference value: 100%); format: functional, Cavia porcellus, Papillary muscle
In this section, each of the compounds is paired with its reported Activity.
The answer is to be given in %; state only the numeric part.

Observe how each entry below is paired with its result.
>>> print(df.to_string())
                                   compound  reported_result
0  COC(=O)C1=C(C)NC(C)=C([N+](=O)[O-])C1c1ccccc1OC(F)F (stereo unspecified)            114.4
1  COC(=O)C1=C(C)NC=C([N+](=O)[O-])C1c1ccccc1C(F)(F)F (stereo unspecified)              101
2  CCCOCCOC(=O)C1=C(C)NC=C([N+](=O)[O-])C1c1ccc(C(F)(F)F)cc1 (stereo unspecified)             89.5

May I ask what Activity has been recorded for CCCOCCOC(=O)C1=C(C)NC=C([N+](=O)[O-])C1c1ccccc1OC(F)F (stereo unspecified) ? 108

Try this compound too: COC(=O)C1=C(C)NC=C([N+](=O)[O-])C1c1ccccc1OC(F)F (stereo unspecified) 78.85

Try this compound too: COC(=O)C1=C(C)NC(C)=C([N+](=O)[O-])C1c1ccccc1C(F)(F)F (stereo unspecified) 123

###

assay: Ionotropic effect in guinea pig right ventricle papillary muscles assessed as contraction force at 10^-5 M by force transduction assay relative to untreated control (reference value: 100%); assay type: functional, Cavia porcellus, Papillary muscle
Property Name: Activity (%)
The answer is to be given in %; state only the numeric part.

                                   molecule  property_name  result_unit  reported_result
0  COC(=O)C1=C(C)NC(C)=C([N+](=O)[O-])C1c1ccccc1C(F)(F)F (stereo unspecified)       Activity            %              175
1  CCCOCCOC(=O)C1=C(C)NC=C([N+](=O)[O-])C1c1ccccc1OC(F)F (stereo unspecified)       Activity            %              134
2  CCCOCCOC(=O)C1=C(C)NC=C([N+](=O)[O-])C1c1ccc(C(F)(F)F)cc1 (stereo unspecified)       Activity            %               81
3  COC(=O)C1=C(C)NC=C([N+](=O)[O-])C1c1ccccc1OC(F)F (stereo unspecified)       Activity            %             90.3
4  COC(=O)C1=C(C)NC(C)=C([N+](=O)[O-])C1c1ccccc1OC(F)F (stereo unspecified)       Activity            %            108.3

The record that follows has no Activity shown yet.
May I ask what Activity has been recorded for COC(=O)C1=C(C)NC=C([N+](=O)[O-])C1c1ccccc1C(F)(F)F (stereo unspecified) ? 103

###

In this section, each of the compounds is paired with its reported Time.
experiment: Ionotropic effect in guinea pig ventricle papillary muscles assessed as lengthening of 10% repolarized cardiac action potential duration time at 10^-7 M by microelectrode technique relative to untreated control (reference value: 37 to 47 APD10 ms); type: functional, Cavia porcellus, Papillary muscle
The answer is to be given in ms; state only the numeric part.

Observe how each entry below is paired with its result.
>>> df
                                   compound  reported_result
0  COC(=O)C1=C(C)NC(C)=C([N+](=O)[O-])C1c1ccccc1C(F)(F)F (stereo unspecified)             44.5
1  COC(=O)C1=C(C)NC=C([N+](=O)[O-])C1c1ccccc1C(F)(F)F (stereo unspecified)               40
2  COC(=O)C1=C(C)NC(C)=C([N+](=O)[O-])C1c1ccccc1OC(F)F (stereo unspecified)             51.3
3  CCCOCCOC(=O)C1=C(C)NC=C([N+](=O)[O-])C1c1ccccc1OC(F)F (stereo unspecified)               40
4  COC(=O)C1=C(C)NC=C([N+](=O)[O-])C1c1ccccc1OC(F)F (stereo unspecified)               36

The record that follows has no Time shown yet.
May I ask what Time has been recorded for CCCOCCOC(=O)C1=C(C)NC=C([N+](=O)[O-])C1c1ccc(C(F)(F)F)cc1 (stereo unspecified) ? 35
